// shrunken log2 fold change lookup, one value per entry
# Tested on: Escherichia coli TOP10;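 note: peptides expressed intracellularly from a pBAD plasmid library in pooled LB shake-flask culture, induced with 0.3% L-arabinose, DNA abundance read by NGS, three biological replicates, DESeq2 with apeglm shrinkage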
# test-name: shrunken log2 fold change of peptide-encoding DNA abundance (4.5 h post-induction vs induction); higher = less antimicrobial activity (less host growth inhibition)
# particulars: time post-induction: 4.5 h; library: site-saturation at positions 5, 18, 19, 20
No unit in the answer, please; the number alone is enough.

Worked examples, 3 sequences total:
residue-string	shrunken log2 fold change
RRIRPRPPRLPRPRPRPRRHPRP	0.241
RRIRVRPPRLPRPRPRPYSEPRP	-0.217
RRIRRRPPRLPRPRPRPQHMPRP	-0.296

Let us examine a further case.
What the record says about `RRIRHRPPRLPRPRPRPIGGPRP` : shrunken log2 fold change is 0.111
